Assay Method Text: recombinant UMI read abundance after kanamycin selection (control-corrected) (log10(CPM+1)); higher = more efficient recombination; extreme values may be limits of the assay; sequences stand for … in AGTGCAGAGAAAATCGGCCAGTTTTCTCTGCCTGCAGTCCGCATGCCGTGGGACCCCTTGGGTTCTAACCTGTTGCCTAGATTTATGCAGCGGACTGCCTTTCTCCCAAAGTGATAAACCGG…AGGTTGGTTTCACT; site = the 11-nt donor;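 further: IS621 bridge recombinase in Escherichia coli cells against a fixed T5 target plasmid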
Property: recombinant UMI read abundance (log10)
One number for each entry.

Answered examples (4):
> print(dat)
                              sequence.code  endpoint.value
1  GTAGTAGCATGGACCGGTTTTCCCGGTAATCCGTATTTGCG (site GTAGTAGCTCG)            2.62
2  GCGAAACCATGGACCGGTTTTCCCGGTAATCCGTATTTGCT (site GCGAAACCTAG)               0
3  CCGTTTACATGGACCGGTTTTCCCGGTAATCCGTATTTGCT (site GCGTTTACTAG)               0
4  CGGACAGCATGGACCGGTTTTCCCGGTAATCCGTATTTGCT (site CGGACACCTAG)               0

Give measured recombinant UMI read abundance (log10) for every item shown.
1. GGCCGTGCATGGACCGGTTTTCCCGGTAATCCGTATTTGCC (site GGCCGTGCTGG)
2. AGTGGCCCATGGACCGGTTTTCCCGGTAATCCGTATTTGCG (site AGTGGCCCTCG)

1: 1.16; 2: 0.0207

Give measured recombinant UMI read abundance (log10) for every item shown.
1. CGATCATCATGGACCGGTTTTCCCGGTAATCCGTATTTGAT (site CGATCATCTAT)
2. GAGTTCACATGGACCGGTTTTCCCGGTAATCCGTATTTGAT (site GAGTTCACTAT)

1: 0.727; 2: 1.69

###

Assay Method Text: recombinant UMI read abundance after kanamycin selection (control-corrected) (log10(CPM+1)); higher = more efficient recombination; extreme values may be limits of the assay; sequences stand for … in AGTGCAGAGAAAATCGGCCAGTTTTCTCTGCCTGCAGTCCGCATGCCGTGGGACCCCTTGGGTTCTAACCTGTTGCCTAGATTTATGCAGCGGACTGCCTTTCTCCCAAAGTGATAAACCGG…AGGTTGGTTTCACT; site = the 11-nt donor
Classify by measured recombinant UMI read abundance (log10): 1 (yes) if it is equal to or exceeds 0.7, 0 (no) if it is smaller.

Solved cases below.
> print(dat)
                              sequence.code  category
1  AGGTGACCATGGACCGGTTTTCCCGGTAATCCGTATTTGCC (site AGGTGACCTGG)    0 (no)
2  GATTGGACATGGACCGGTTTTCCCGGTAATCCGTATTTGAC (site GATTGGACTCT)    0 (no)
3  GTTCGAGCATGGACCGGTTTTCCCGGTAATCCGTATTTGCA (site GTTCCAGCTTG)    0 (no)
4  AAGAATACATGGACCGGTTTTCCCGGTAATCCGTATTTGCA (site AAGAATACTTG)   1 (yes)
5  CTGCATGCATGGACCGGTTTTCCCGGTAATCCGTATTTGGT (site ATGCATGCTAC)    0 (no)

Could you tell me if the measured recombinant UMI read abundance (log10) of AATCTAACATGGACCGGTTTTCCCGGTAATCCGTATTTGCT (site AATATAACTAG) reaches 0.7 or more? 0 (no)

Note, next up: TACTCGACATGGACCGGTTTTCCCGGTAATCCGTATTTGTC (site TACTCGACTGA) 0 (no)

Note, next up: TGCGGAACATGGACCGGTTTTCCCGGTAATCCGTATTTGCG (site TGCGGAACTCG) 1 (yes)

Note, next up: ACTAATACATGGACCGGTTTTCCCGGTAATCCGTATTTGGC (site GCTAATACTGC) 1 (yes)

Note, next up: CAATTGACATGGACCGGTTTTCCCGGTAATCCGTATTTGAA (site CAATTGACTTT) 1 (yes)

Note, next up: CACAAATCATGGACCGGTTTTCCCGGTAATCCGTATTTGAC (site CACAAATCTGT) 1 (yes)
